Entries below carry reported IC50 on SYK (Homo sapiens).

Consider the reported IC50 for these compounds:
>  <compound>
CN(c1cccc(C(N)=O)c1)c1nccn2nc(Nc3ccc4c(c3)NC(=O)C4(C)C)nc12 [E151]

>  <value kind>
IC50

>  <result>
300 to 3000 nM

$$$$
>  <compound>
COc1cc(Nc2nc3c(N4CCN(C)CC4c4ccccc4)nccn3n2)cc(OC)c1 (centres unmarked) [C55]

>  <value kind>
IC50

>  <result>
300 to 3000 nM

$$$$
>  <compound>
Cn1cc(-c2nccn3nc(Nc4ccc([S+](C)[O-])cc4)nc23)cn1 (centres unmarked) [C32]

>  <value kind>
IC50

>  <result>
300 to 3000 nM

$$$$
>  <compound>
CC1(C)C(=O)Nc2cc(Nc3nc4c(N5CCCCC5)nccn4n3)ccc21 [E69]

>  <value kind>
IC50

>  <result>
< 100 nM

$$$$

Then this compound:
Query: Look up IC50 with SYK (Homo sapiens) for this compound: Cn1cc(-c2nccn3nc(Nc4ccc(C5(C(N)=O)CC5)cc4)nc23)cn1 [C64]
Response: 300 to 3000 nM
